Where do the numbers come from? From PubChem BioAssay AID1845226.

Assay: Confirmatory fluorescence-based thiol-reactive (MSTI) qHTS assay for identification of artifact compounds
Details: MSTI thiol-reactivity probe, 1 h; series mostly up to 39.2 µM
Results filed as inconclusive are left out. The source made the active and inactive calls. Calls come from the whole dose curve; as a rule, active = well fitted inhibition curve with a large enough effect; inconclusive = small, poorly fitted or top-dose-only effect; inactive = no such curve, though single readings can be large or run the other way.
Mark one answer only. Choices: label 1 (active), label 0 (inactive)

* Cc1cc(N[S+](=O)([O-])c2ccc(NC(=O)Cc3ccc(Cl)nc3)cc2)no1 | label 0

Please look at the following compound next.
# input What did the test return for COc1ccc(NC(=O)Nc2cccc(-c3noc(C)n3)c2)cc1 ?
# output label 0

###

Assay: Confirmatory fluorescence-based thiol-reactive (MSTI) qHTS assay for identification of artifact compounds
Conditions: MSTI thiol-reactivity probe, 1 h; series mostly up to 39.2 µM
Inconclusive results are not listed. Active and inactive are the calls of the source. Calls follow the shape of the dose curve; as a rule, active = well fitted inhibition curve with a large enough effect; inconclusive = small, poorly fitted or top-dose-only effect; inactive = no such curve, though single readings can be large or run the other way.
Pick one and only one: active, inactive

# count of solved cases: 3
* Cc1ccc(OCCn2c(CCNC(=O)c3c(F)cccc3F)nc3ccccc32)cc1 | inactive
* COc1cc2c(C(=O)N3CCN(c4ccc(F)cc4)CC3)cn(CC(C)C)c(=O)c2cc1OC | inactive
* COc1ccccc1C(CC(=O)Nc1ccc(F)cc1)c1ccccc1 (stereo not given) | inactive

# input Which result was noted for this molecule in the test: Cc1ccc(NC(=O)Cn2c(=O)oc3cc(S(=O)(=O)N4CCCCC4)ccc32)c(Cl)c1
# output inactive

# input Tell me the assay call for CCSc1ncc(Cl)c(C(=O)Nc2c(C(=O)Nc3cccc(C)c3)oc3ccccc23)n1 please.
# output inactive

# input # lookup: test call for CC(=O)O[C@H]1C[C@@H]2CC[C@@H]3[C@H](CC[C@@]4(C)[C@H]3C[C@H](N3CC[N+](C)(C)CC3)[C@@H]4OC(C)=O)[C@@]2(C)C[C@@H]1N1CC[N+](C)(C)CC1
# output inactive

# input Assay result, entry Cc1c(C(=O)OCCOc2ccccc2)[nH]c2c1C(=O)CC(c1ccccc1)C2 (stereo not given) — outcome?
# output inactive

# input Name the outcome recorded for COc1cc(O)c2c(c1)oc(=O)c1c3cc(O)c(O)cc3oc21 in the assay.
# output active

# input Outcome logged for CCc1cccc(NC(=O)CN2CCCN(Cc3cccc(C)c3)S2(=O)=O)c1 in this assay:
# output inactive

# input Test call, this molecule: Clc1ccccc1Cn1c(-c2cccs2)nc2ccccc21
# output inactive
